Below: a set of entries, each annotated with reported pIC50.
# SYSTEM NAME: T1, C5a receptor (Homo sapiens, UniProt P21730)
# T1 construct: Neutrophils were purified from human peripheral blood; endogenous in cells; host or cells: neutrophils from human peripheral blood
# T1 sequence (P21730 1-350): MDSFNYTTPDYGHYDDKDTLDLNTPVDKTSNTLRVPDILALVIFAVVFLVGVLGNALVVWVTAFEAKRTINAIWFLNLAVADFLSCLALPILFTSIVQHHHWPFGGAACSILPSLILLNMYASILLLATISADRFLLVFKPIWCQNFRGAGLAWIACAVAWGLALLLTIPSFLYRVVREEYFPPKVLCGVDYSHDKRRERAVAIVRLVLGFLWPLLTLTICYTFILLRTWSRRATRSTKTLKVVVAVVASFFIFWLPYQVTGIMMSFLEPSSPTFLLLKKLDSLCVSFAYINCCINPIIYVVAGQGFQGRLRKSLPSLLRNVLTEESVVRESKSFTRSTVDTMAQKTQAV
# EXPERIMENT NOTES: C5a induced Ca++ rise assay in fura-2 loaded neutrophils
# Format: cell-based
# MEASUREMENT SETUP: Table 6, Example 10 comparison with decapeptide
# From the text: The antagonism of the instant C5a analogues may be quantified as an IC50 in the calcium rise assay disclosed in Seligmann et al., Agents and Actions 21:375-378 (1987), described in detail in Example 7. See Hugli et al., CRC Crit. Rev. Immunol. 1:321-326 (1981) and PCT WO 92/10205. A quantitative measure of this property may also be obtained using the calcium rise assay disclosed in Seligmann et al., supra, also described in Example 7. EC50 is a measure of agonistic activity. […]
pIC50: −log10 of the molar value.

# MOLECULE, pIC50
rows = [
    ("C5a (1-70, T1M, C275, M7OC) (protein, UniProt P01031 678-747, looked up, variant T1M C27S M70C, C5a anaphylatoxin) MLQKKIEEIAAKYKHSVVKKCCYDGASVNNDETCEQRAARISLGPRCIKAFTECCVVASQLRANISHKDC", 6.07),
    ("C5a (1-72, T1M, C27S, L72C) (protein, UniProt P01031 678-751, looked up, variant T1M C27S L72C, C5a anaphylatoxin truncated to residues 1-72) C5a anaphylatoxin: MLQKKIEEIAAKYKHSVVKKCCYDGASVNNDETCEQRAARISLGPRCIKAFTECCVVASQLRANISHKDMQCGR", 6.21),
    ("C5a (1-71, T1M, C27S, Q71C) (protein, UniProt P01031 678-751, looked up, variant T1M C27S Q71C, C5a anaphylatoxin) C5a anaphylatoxin: MLQKKIEEIAAKYKHSVVKKCCYDGASVNNDETCEQRAARISLGPRCIKAFTECCVVASQLRANISHKDMCLGR", 7.29),
    ("C5a (1-68, T1M, C27S, K68C) (protein, UniProt P01031 678-745, looked up, variant T1M C27S K68C, C5a anaphylatoxin) MLQKKIEEIAAKYKHSVVKKCCYDGASVNNDETCEQRAARISLGPRCIKAFTECCVVASQLRANISHC", 7.08),
]

The origin of these recorded values is patent US5807824A.
